- Measured On: p53 Y220C mutant protein (amino acid residues 94-293) (Homo sapiens, UniProt P04637, Y220C)
- Construct: p53 Y220C mutant protein (amino acid residues 94-293)
- Method Notes: Thermal Shift Assay (TSA), dTM
- Format: binding
- Experimental Parameters: thermal shift, 100 uM compound; read-out: TSA P53 Y220C dTM (100 uM)
- Procedure: Thermal Shift Assay (TSA) Protocol 5 μM recombinant p53 Y220C mutant protein (amino acid residues 94-293) was incubated with 10 μM or 100 μM compound for 3 hours at 20 °C in buffer containing 20 mM HEPES, pH7.4, 100 mM NaCl, 0.01% Pluronic F-127, and 1% DMSO in the presence of 400-fold diluted Sypro Orange (ThermoFisher Scientific catalog number 4461146), on a 384-well PCR plate (Applied Biosystems catalog number 4483285). The volume was 5 μL/well. […]
Each item that follows carries a reported ΔTm at 100 µM.

Example compounds with recorded ΔTm at 100 µM:
> print(dat)
                            compound.smiles  measurement.label      result
1  CNC(=O)c1ccc(NCC#Cc2nc3c(NC4CC5(C4)CN(CC(F)F)C5)cccn3c2SC(F)(F)F)c(OC)c1      ΔTm at 100 µM  5 to 10 °C
2  CCOc1c(C#CCNc2ccc(C(=O)NC)cc2OC)nc2c(N[C@@H]3CCN(C)C[C@@H]3F)cccn12      ΔTm at 100 µM   1 to 5 °C
3  COC[C@@H](O)CN1CCC(Nc2cccn3c(CC(F)(F)F)c(C#CCNc4ccc(S(C)(=O)=O)cc4OC)nc23)CC1      ΔTm at 100 µM     ≥ 10 °C
4  CNC(=O)c1ccc(NCC#Cc2nc3c(N[C@H]4Cc5cncn5C4)cccn3c2SC(F)(F)F)c(OC)c1      ΔTm at 100 µM     ≥ 10 °C

# next compound below
What ΔTm at 100 µM value was documented for this compound, COc1cc(S(C)(=O)=O)ccc1NCC#Cc1nc2c(NC3CCN(CCS(C)(=O)=O)CC3)cccn2c1CC(F)(F)F ? 5 to 10 °C

----------
Each item that follows carries a reported ΔTm at 100 µM.
- Measured On: p53 Y220C mutant protein (amino acid residues 94-293) (Homo sapiens, UniProt P04637, Y220C)
- Construct: p53 Y220C mutant protein (amino acid residues 94-293)
- Method Notes: Thermal Shift Assay (TSA), dTM
- Type: binding
- Experimental Parameters: thermal shift, 100 uM compound; read-out: TSA P53 Y220C dTM (100 uM)

Example compounds with recorded ΔTm at 100 µM:
> print(dat)
                            compound.smiles   result
1  CNC(=O)c1ccc(NCC#Cc2nc3c(N[C@H]4CCn5cncc5C4)cccn3c2SC(F)(F)F)c(OC)c1  ≥ 10 °C
2  CCS(=O)(=O)c1ccc(NCC#Cc2nc3c(N[C@@H]4CCN(C)C[C@@H]4F)cccn3c2SC(F)(F)F)c(OC)c1  ≥ 10 °C

# next compound below
What ΔTm at 100 µM value was documented for this compound, CNC(=O)c1cnc(OC)c(NCC#Cc2nc3c(N[C@@H]4CCN(C)C[C@@H]4F)cccn3c2SC(F)(F)F)c1 ? ≥ 10 °C
